Target: uPA (Homo sapiens)
Construct: purchased HYPHEN BioMed
Test: Kinetic progress curves (kapp, mechanism)
Format: biochemical
Details: apparent second-order rate constant from progress curves; mean ± SD
Lab note: anything with uPA kapp at or over 60 M⁻¹ s⁻¹ counts as yes; the rest go in no.

{"compound": "C#CCCCOC(=O)NC(CCCNC(=N)N)P(=O)(Oc1ccccc1)Oc1ccccc1 (centres unmarked) [32b]", "label": "no"}
{"compound": "C[C@@H]1NC(=O)N[C@@H]1CCCCCC(=O)NCCOCCOCCOCCn1cc(CCCOC(=O)NC(Cc2ccc(NC(=N)N)cc2)P(=O)(Oc2ccc(Cl)cc2)Oc2ccc(Cl)cc2)nn1 (some centres unmarked) [54b]", "label": "yes"}
{"compound": "CC(=O)Nc1ccc(OP(=O)(Oc2ccc(NC(C)=O)cc2)C(NC(=O)OCCCc2cn(CCOCCOCCOCCNC(=O)CCCCC[C@H]3NC(=O)N[C@H]3C)nn2)c2ccc(NC(=N)N)cc2)cc1 (some centres unmarked) [56b]", "label": "yes"}
{"compound": "C#CCCCOC(=O)NC(Cc1ccc(NC(=N)N)cc1)P(=O)(Oc1ccc(NC(C)=O)cc1)Oc1ccc(NC(C)=O)cc1 (centres unmarked) [35b]", "label": "yes"}
{"compound": "C[C@@H]1NC(=O)N[C@@H]1CCCCCC(=O)NCCOCCOCCOCCn1cc(CCCOC(=O)NC(Cc2ccc(NC(=N)N)cc2)P(=O)(Oc2ccccc2)Oc2ccccc2)nn1 (some centres unmarked) [50b]", "label": "yes"}

Where these numbers come from: paper PMC9849758
